Documented Ki across a set of molecules
test.summary: Displacement of [125I]TZDM from amyloid beta 1 to 42 aggregates
Dear colleague, please return just the value in pM, with no unit written.

Example entries begin here.
* CN(C)c1ccc(N2C(=O)c3ccc(OCCCF)cc3C2=O)cc1 | 850
* CNc1ccc(N2Cc3cc(OCCF)ccc3C2=O)cc1 | 910
* Nc1ccc(N2C(=O)c3ccc(OCCF)cc3C2=O)cc1 | 590

Output Ki of "CN(C)c1ccc(N2C(=O)c3ccc(OCCF)cc3C2=O)cc1"
690

Output Ki of CNc1ccc(-c2nc3ccc(O)cc3s2)cc1 [PITTSBURGH COMPOUND B UNLABELLED]
770

Output Ki of "Nc1ccc(N2C(=O)c3ccc(OCCCF)cc3C2=O)cc1"
740
